Data origin: the supplement of paper PMC10307832

Test system: NCI-H1563
protocol_description: relative viability (nuclei count vs DMSO), 5 days (fraction); higher = more cells survive
experimental_parameters: first compound 0.253 µM
endpoint_label: relative viability

compound="O=c1cc(-c2cccc3c2Sc2ccccc2S3)oc(N2CCOCC2)c1 + CCNC(=O)c1noc(-c2cc(C(C)C)c(O)cc2O)c1-c1ccc(CN2CCOCC2)cc1 [Luminespib] (partner 0.01 µM)" endpoint_label="relative viability" experimental_value=0.567
compound="COc1nc(C)cnc1NS(=O)(=O)c1cccnc1-c1ccc(-c2nnco2)cc1 [Zibotentan] + C[C@]1(O)C[C@@H](c2nc(-c3ccc4ccc(-c5ccccc5)nc4c3)c3c(N)nccn32)C1 [Linsitinib] (partner 1 µM)" endpoint_label="relative viability" experimental_value=0.789
compound="O=c1cc(-c2cccc3c2Sc2ccccc2S3)oc(N2CCOCC2)c1 + COc1cccc2cc(-c3nc([C@H]4CC[C@H](C(=O)O)CC4)n4ncnc(N)c34)[nH]c12 [OSI-027] (partner 0.5 µM)" endpoint_label="relative viability" experimental_value=0.756
compound="O=c1cc(-c2cccc3c2Sc2ccccc2S3)oc(N2CCOCC2)c1 + CC(C)C[C@H](NC(=O)[C@H](Cc1ccccc1)NC(=O)c1cnccn1)B(O)O [Bortezomib] (partner 0.002 µM)" endpoint_label="relative viability" experimental_value=0.857
compound="O=c1cc(-c2cccc3c2Sc2ccccc2S3)oc(N2CCOCC2)c1 + CS(=O)(=O)CCNCc1ccc(-c2ccc3ncnc(Nc4ccc(OCc5cccc(F)c5)c(Cl)c4)c3c2)o1 [Lapatinib] (partner 2 µM)" endpoint_label="relative viability" experimental_value=0.978
compound="O=c1cc(-c2cccc3c2Sc2ccccc2S3)oc(N2CCOCC2)c1 + COc1cc2c(Oc3ccc(NC(=O)C4(C(=O)Nc5ccc(F)cc5)CC4)cc3F)ccnc2cc1OCCCN1CCOCC1 [Foretinib] (partner 0.25 µM)" endpoint_label="relative viability" experimental_value=0.895

====

Tested on: NCI-H838
protocol_description: relative viability (nuclei count vs DMSO), 5 days (fraction); higher = more cells survive
experimental_parameters: first compound 0.8 µM
Friendly reminder: relative viability below 0.5 is y, at or above is n.

compound="COc1nc(C)cnc1NS(=O)(=O)c1cccnc1-c1ccc(-c2nnco2)cc1 [Zibotentan] + Cc1nc(Nc2ncc(C(=O)Nc3c(C)cccc3Cl)s2)cc(N2CCN(CCO)CC2)n1 [Dasatinib] (partner 0.075 µM)" group_label=y
compound="COc1nc(C)cnc1NS(=O)(=O)c1cccnc1-c1ccc(-c2nnco2)cc1 [Zibotentan] + CC1(C)CCC(c2ccc(Cl)cc2)=C(CN2CCN(c3ccc(C(=O)NS(=O)(=O)c4ccc(N[C@H](CCN5CCOCC5)CSc5ccccc5)c(S(=O)(=O)C(F)(F)F)c4)cc3)CC2)C1 [Navitoclax] (partner 0.5 µM)" group_label=n
compound="O=c1cc(-c2cccc3c2Sc2ccccc2S3)oc(N2CCOCC2)c1 + Nc1ncn([C@H]2C[C@H](O)[C@@H](CO)O2)c(=O)n1 [Decitabine] (partner 2 µM)" group_label=y
compound="COc1nc(C)cnc1NS(=O)(=O)c1cccnc1-c1ccc(-c2nnco2)cc1 [Zibotentan] + CS(=O)(=O)CCNCc1ccc(-c2ccc3ncnc(Nc4ccc(OCc5cccc(F)c5)c(Cl)c4)c3c2)o1 [Lapatinib] (partner 2 µM)" group_label=n
compound="O=c1cc(-c2cccc3c2Sc2ccccc2S3)oc(N2CCOCC2)c1 + C[C@]1(O)C[C@@H](c2nc(-c3ccc4ccc(-c5ccccc5)nc4c3)c3c(N)nccn32)C1 [Linsitinib] (partner 1 µM)" group_label=n

====

Tested on: NCI-H2170
protocol_description: relative viability (nuclei count vs DMSO), 5 days (fraction); higher = more cells survive
experimental_parameters: first compound 2 µM
endpoint_label: relative viability

compound="COCC1(CO)C(=O)C2CCN1CC2 (centres undefined) [PRIMA-1MET] + Cc1cc(Nc2cc(N3CCN(C)CC3)nc(Sc3ccc(NC(=O)C4CC4)cc3)n2)n[nH]1 [Tozasertib] (partner 0.1 µM)" experimental_value=0.677
compound="COCC1(CO)C(=O)C2CCN1CC2 (centres undefined) [PRIMA-1MET] + COc1cccc2cc(-c3nc([C@H]4CC[C@H](C(=O)O)CC4)n4ncnc(N)c34)[nH]c12 [OSI-027] (partner 0.5 µM)" experimental_value=0.722
compound="COCC1(CO)C(=O)C2CCN1CC2 (centres undefined) [PRIMA-1MET] + CS(=O)(=O)CCNCc1ccc(-c2ccc3ncnc(Nc4ccc(OCc5cccc(F)c5)c(Cl)c4)c3c2)o1 [Lapatinib] (partner 2 µM)" experimental_value=0.237
compound="COCC1(CO)C(=O)C2CCN1CC2 (centres undefined) [PRIMA-1MET] + Cc1nc(Nc2ncc(C(=O)Nc3c(C)cccc3Cl)s2)cc(N2CCN(CCO)CC2)n1 [Dasatinib] (partner 0.075 µM)" experimental_value=0.497

====

Tested on: COR-L 105
protocol_description: relative viability (nuclei count vs DMSO), 5 days (fraction); higher = more cells survive
experimental_parameters: first compound 0.3162 µM
Friendly reminder: relative viability below 0.8 is 1, at or above is -1.

molecule="CCN(CC)CCCCNc1ncc2cc(-c3cc(OC)cc(OC)c3)c(NC(=O)NC(C)(C)C)nc2n1 + C[C@]1(O)C[C@@H](c2nc(-c3ccc4ccc(-c5ccccc5)nc4c3)c3c(N)nccn32)C1 [Linsitinib] (partner 1 µM)" group_label=-1
molecule="O=c1cc(N2CCOCC2)oc2c(-c3cccc4c3sc3ccccc34)cccc12 + CCNC(=O)c1noc(-c2cc(C(C)C)c(O)cc2O)c1-c1ccc(CN2CCOCC2)cc1 [Luminespib] (partner 0.01 µM)" group_label=1
molecule="CCN(CC)CCCCNc1ncc2cc(-c3cc(OC)cc(OC)c3)c(NC(=O)NC(C)(C)C)nc2n1 + CC(=O)c1c(C)c2cnc(Nc3ccc(N4CCNCC4)cn3)nc2n(C2CCCC2)c1=O [Palbociclib] (partner 0.5 µM)" group_label=1
molecule="O=c1cc(N2CCOCC2)oc2c(-c3cccc4c3sc3ccccc34)cccc12 + Nc1nc2[nH]cc(CCc3ccc(C(=O)N[C@@H](CCC(=O)O)C(=O)O)cc3)c2c(=O)[nH]1 [Pemetrexed] (partner 0.2 µM)" group_label=-1
molecule="O=c1cc(N2CCOCC2)oc2c(-c3cccc4c3sc3ccccc34)cccc12 + CS(=O)(=O)N1CCN(Cc2cc3nc(-c4cccc5[nH]ncc45)nc(N4CCOCC4)c3s2)CC1 [Pictilisib] (partner 1 µM)" group_label=1
molecule="O=c1cc(N2CCOCC2)oc2c(-c3cccc4c3sc3ccccc34)cccc12 + Cc1nc(Nc2ncc(C(=O)Nc3c(C)cccc3Cl)s2)cc(N2CCN(CCO)CC2)n1 [Dasatinib] (partner 0.075 µM)" group_label=1
molecule="O=c1cc(N2CCOCC2)oc2c(-c3cccc4c3sc3ccccc34)cccc12 + Cc1cc(Nc2cc(N3CCN(C)CC3)nc(Sc3ccc(NC(=O)C4CC4)cc3)n2)n[nH]1 [Tozasertib] (partner 0.1 µM)" group_label=1
molecule="CCN(CC)CCCCNc1ncc2cc(-c3cc(OC)cc(OC)c3)c(NC(=O)NC(C)(C)C)nc2n1 + Nc1nc2[nH]cc(CCc3ccc(C(=O)N[C@@H](CCC(=O)O)C(=O)O)cc3)c2c(=O)[nH]1 [Pemetrexed] (partner 0.2 µM)" group_label=-1
molecule="O=c1cc(N2CCOCC2)oc2c(-c3cccc4c3sc3ccccc34)cccc12 + CC(=O)Nc1cccc(-n2c(=O)n(C3CC3)c(=O)c3c(Nc4ccc(I)cc4F)n(C)c(=O)c(C)c32)c1 [Trametinib] (partner 0.02 µM)" group_label=1

====

Recorded relative viability, one value per entry.
System: NCI-H1299
protocol_description: relative viability (nuclei count vs DMSO), 5 days (fraction); higher = more cells survive
experimental_parameters: first compound 0.8 µM
endpoint_label: relative viability

compound="COc1nc(C)cnc1NS(=O)(=O)c1cccnc1-c1ccc(-c2nnco2)cc1 [Zibotentan] + CS(=O)(=O)N1CCN(Cc2cc3nc(-c4cccc5[nH]ncc45)nc(N4CCOCC4)c3s2)CC1 [Pictilisib] (partner 1 µM)" test_target=NCI-H1299 experimental_value=0.773
compound="O=c1cc(-c2cccc3c2Sc2ccccc2S3)oc(N2CCOCC2)c1 + O=C(c1cc(Cc2n[nH]c(=O)c3ccccc23)ccc1F)N1CCN(C(=O)C2CC2)CC1 [Olaparib] (partner 8 µM)" test_target=NCI-H1299 experimental_value=1.04
compound="COc1nc(C)cnc1NS(=O)(=O)c1cccnc1-c1ccc(-c2nnco2)cc1 [Zibotentan] + COc1cc2c(Oc3ccc(NC(=O)C4(C(=O)Nc5ccc(F)cc5)CC4)cc3F)ccnc2cc1OCCCN1CCOCC1 [Foretinib] (partner 0.25 µM)" test_target=NCI-H1299 experimental_value=1.05
compound="O=c1cc(-c2cccc3c2Sc2ccccc2S3)oc(N2CCOCC2)c1 + CC(C)C[C@H](NC(=O)[C@H](Cc1ccccc1)NC(=O)c1cnccn1)B(O)O [Bortezomib] (partner 0.002 µM)" test_target=NCI-H1299 experimental_value=1.05
compound="O=c1cc(-c2cccc3c2Sc2ccccc2S3)oc(N2CCOCC2)c1 + C[C@]1(O)C[C@@H](c2nc(-c3ccc4ccc(-c5ccccc5)nc4c3)c3c(N)nccn32)C1 [Linsitinib] (partner 1 µM)" test_target=NCI-H1299 experimental_value=1.05
compound="O=c1cc(-c2cccc3c2Sc2ccccc2S3)oc(N2CCOCC2)c1 + C[C@@H](Oc1cc(-c2cnn(C3CCNCC3)c2)cnc1N)c1c(Cl)ccc(F)c1Cl [Crizotinib] (partner 1 µM)" test_target=NCI-H1299 experimental_value=1
